protocol-description: qHTS assay to identify small molecule agonists of the hypoxia (HIF-1) signaling pathway - cell viability counter screen (AID 1224844); note: nearly all actives have a fitted effect of over 50% in size
condition-set: HRE-bla ME-180 viability, CellTiter-Glo luminescence, 17 h; series mostly up to 76.8 µM
Records with an inconclusive call do not appear. Activity calls are given as the source filed them. Calls come from the whole dose curve.
Permitted responses: active, inactive

CCC(CC)Nc1c([N+](=O)[O-])cc(C)c(C)c1[N+](=O)[O-]	inactive

Moving on to another compound below.
# input For this compound, state the assay outcome: `O=[N+]([O-])c1cccc2ccccc12`
# output inactive

* * *

protocol-description: qHTS assay to identify small molecule agonists of the RXR signaling pathway - cell viability counter screen (AID 1159529); note: nearly all actives have a fitted effect of over 50% in size; note: potency is the fitted concentration of half-maximal effect
condition-set: RXR-alpha-bla HEK293T viability, CellTiter-Glo, 16 h; series mostly up to 76.8 µM
Results filed as inconclusive are left out. Activity calls are given as the source filed them. Calls follow the shape of the dose curve; as a rule, active = well fitted cell-killing curve with a large enough effect in the repeat runs; inconclusive = weak or mixed curves, or effect the other way; inactive = no such curve, though single readings can be large or run the other way.
reported-endpoint: Potency

Record excerpt, results attached:
COP(=S)(OC)Oc1ccc([N+](=O)[O-])cc1	inactive
Oc1cc(Cl)ccc1Oc1ccc(Cl)cc1Cl	17.8 µM (active)
Oc1ccc(-c2ccccc2)cc1	inactive
CCN(CC)N=O	inactive
C=CCc1ccc(OC)cc1	inactive
Cc1c(COC(=O)[C@@H]2[C@H](/C=C(\Cl)C(F)(F)F)C2(C)C)cccc1-c1ccccc1	inactive

# input Fill in: Potency of `CCC(C)(C)c1ccc(O)cc1` is ___
# output inactive

# input Reported Potency for `CCN(CC)C(=O)/C(Cl)=C(\C)OP(=O)(OC)OC` : what is it?
# output inactive

# input What value of Potency has been reported for the following molecule? `O=[N+]([O-])c1ccc(O)c([N+](=O)[O-])c1`
# output 12.3 µM (active)

* * *

protocol-description: A CellTox Green Cytotoxicity Assay to monitor cytotoxicity in HEK293 cells - 8 hour (AID 1224884); note: nearly all actives have a fitted effect of over 35% in size
condition-set: CellTox Green fluorescence; series mostly up to 76.8 µM
Results filed as inconclusive are left out. The source made the active and inactive calls. Calls follow the shape of the dose curve; as a rule, active = well fitted activation curve with a large enough effect in the repeat runs; inconclusive = weak or mixed curves; inactive = flat fitted curve, though single readings scatter.
Give one outcome, nothing more. List: true (active), false (inactive)

A selection of reference data follows.
c1ccc(N=Nc2ccccc2)cc1	false
Nc1ccc(Cl)cc1N	true
S=C1NCCN1	false
N#Cc1cc(Br)c(O)c(Br)c1	false
O=[N+]([O-])c1ccc(O)c([N+](=O)[O-])c1	false

# input Dear all, I need the recorded test outcome for `CCCCCCCCCCCOC(=O)c1ccccc1C(=O)OCCCCCCCCCCC` , thank you.
# output false

# input Query: recorded result category for `O=C(O)C(F)(F)C(F)(F)C(F)(F)C(F)(F)C(F)(F)C(F)(F)C(F)(F)F` in this test
# output false

# input Which outcome did this test record for the compound `Clc1nc(Cl)nc(Cl)n1` ?
# output false

# input Hey, what did the test say about `NNC(=S)NN` ?
# output false

# input Name the outcome recorded for `Cc1ccc(N)c(N)c1` in the assay.
# output false

# input # outcome recorded in this test, key = `COP(=S)(OC)Oc1ccc([N+](=O)[O-])cc1`
# output false

# input Please share the test call associated with `C=CCc1ccc(OC)cc1` .
# output false

# input Kindly provide the recorded test outcome for the following compound: `c1ccc(-c2cccc(-c3ccccc3)c2)cc1`
# output false

* * *

protocol-description: A CellTox Green Cytotoxicity Assay to monitor cytotoxicity in HEK293 cells - 40 hour (AID 1224871); note: nearly all actives have a fitted effect of over 45% in size
condition-set: CellTox Green fluorescence; series mostly up to 76.8 µM
Inconclusive results are not listed. Active and inactive are the calls of the source. Calls come from the whole dose curve; as a rule, active = well fitted activation curve with a large enough effect in the repeat runs; inconclusive = weak or mixed curves; inactive = flat fitted curve, though single readings scatter.
Write down the outcome that applies. Available outcomes: active, inactive

Oc1cc(Cl)ccc1Oc1ccc(Cl)cc1Cl	active
c1cc(OCC2CO2)ccc1Cc1ccc(OCC2CO2)cc1 (stereo not drawn)	inactive
c1nc[nH]n1	inactive
CC(C)=CC1C(C(=O)OCc2coc(Cc3ccccc3)c2)C1(C)C (stereo not drawn)	inactive
CCOCN(C(=O)CCl)c1c(C)cccc1CC	inactive
C=CCc1ccc2c(c1)OCO2	inactive

# input # lookup: test call for `CC(C)(C)c1ccccc1O`
# output active

# input Can you look up the reported call for `O=[N+]([O-])c1ccc(O)c([N+](=O)[O-])c1` for me?
# output inactive

# input Just curious, what result did `C#C[C@]1(O)CC[C@H]2[C@@H]3CCC4=CC(=O)CC[C@]4(C)[C@H]3CC[C@@]21C` get here?
# output active

# input What is the recorded call for this molecule in the test? `Nc1ccc(-c2ccccc2)cc1`
# output inactive

# input Recorded test outcome, item `CC(C)c1ccc(CO)cc1`
# output inactive

# input What was the test verdict on `Nc1c(Cl)cc([N+](=O)[O-])cc1Cl` ?
# output inactive

# input Which outcome was assigned to `O=S(=O)(Oc1ccc(Cl)cc1)c1ccc(Cl)cc1` in this test?
# output inactive

* * *

tested-on: Acetylcholinesterase (Homo sapiens)
protocol-description: Acetylcholinesterase (AChE) small molecule antagonists: colormetric cell-based qHTS assay (AID 1347395); note: nearly all actives have a fitted effect of over 30% in size
condition-set: SH-SY5Y cells AChE activity, colorimetric (Ellman); series mostly up to 115 µM
Description: National Center for Advancing Translational Sciences [NCATS] Division of Preclinical Innovation [DPI] U.S. Environmental Protection Agency [EPA] National Institutes of Environmental Health Sciences [NIEHS] National Toxicology Program [NTP] U.S. Food and Drug Administration [FDA] Acetylcholinesterase (AChE) is the primary cholinesterase in the body that hydrolyzes a key neurotransmitter, acetylcholine. Inhibition of AChE activity can lead to neurotoxicity. […]
Results filed as inconclusive are left out. Calls of active or inactive are those of the source. The call rests on the fitted dose curve.
reported-endpoint: outcome

As a guide, the following entries are already answered.
CCC(C)c1ccc(O)cc1 (centres undefined)	inactive
Cc1ccccc1[N+](=O)[O-]	inactive
CCC(C)(c1ccc(O)cc1)c1ccc(O)cc1	inactive
Oc1ccc(-c2ccccc2)cc1	inactive
O=c1oc2ccccc2c(O)c1C(CC(O)c1ccc(-c2ccc(Br)cc2)cc1)c1ccccc1 (centres undefined)	inactive
c1ccc(P(c2ccccc2)c2ccccc2)cc1	inactive
Cc1c(COC(=O)[C@@H]2[C@H](/C=C(\Cl)C(F)(F)F)C2(C)C)cccc1-c1ccccc1	inactive
CC(C)(OOC(C)(C)c1ccccc1)c1ccccc1	inactive
NNC(=S)NN	inactive
CC(O)CCO (centres undefined)	inactive

# input # query: outcome of entry `CC(C)(c1cc(Cl)c(O)c(Cl)c1)c1cc(Cl)c(O)c(Cl)c1`
# output inactive

* * *

protocol-description: qHTS assay to identify small molecule antagonists of the estrogen related receptor (ERR) signaling pathway from Tox21 library - cell viability counter screen (AID 1224834); note: nearly all actives have a fitted effect of over 30% in size
condition-set: ERR reporter cells viability, CellTiter-Fluor, 17.5 h; series mostly up to 92.4 µM
Inconclusive results are not listed. Activity calls are given as the source filed them. Calls come from the whole dose curve; as a rule, active = well fitted cell-killing curve with a large enough effect in the repeat runs; inconclusive = weak or mixed curves; inactive = flat fitted curve, though single readings scatter.
Outcomes you can answer with include only these: active, inactive

Answered cases to consult:
CNC(=O)N(C)c1nnc(C(C)(C)C)s1	inactive
N[C@@H](Cc1ccc(N(CCCl)CCCl)cc1)C(=O)O	inactive
Nn1cnnc1	inactive
NNC(N)=S	active

# input What outcome does the record of this test show for `COc1ccc(C=O)cc1` ?
# output inactive

# input What call does the record list for `CCC(CC)Nc1c([N+](=O)[O-])cc(C)c(C)c1[N+](=O)[O-]` ?
# output inactive

# input How was `Cc1ccccc1[N+](=O)[O-]` classified in this test?
# output inactive

# input # lookup: test call for `CC(C)N(C(=O)SCC(Cl)=C(Cl)Cl)C(C)C`
# output inactive

# input Which outcome was entered for the molecule `CC(C)NC(C)C` in this test?
# output inactive

* * *

tested-on: Bile acid receptor (Homo sapiens)
protocol-description: qHTS assay to identify small molecule agonists of the farnesoid-X-receptor (FXR) signaling pathway (AID 743220)
condition-set: HEK293T FXR-UAS-bla, beta-lactamase FRET ratio, 16 h; series mostly up to 62.6 µM
Inconclusive results are not listed. Active and inactive are the calls of the source. Calls come from the whole dose curve; as a rule, active = well fitted activation curve with a large enough effect in the signal ratio in the repeat runs (not every such curve was filed as active); inconclusive = weak or mixed curves, or effect the other way; inactive = flat fitted curve, though single readings scatter; the % refers to the signal ratio.
reported-endpoint: outcome

CCN(CC)C(=O)SCc1ccc(Cl)cc1	inactive
Nc1c(Cl)cc([N+](=O)[O-])cc1Cl	inactive
c1cc(OCC2CO2)ccc1Cc1ccc(OCC2CO2)cc1 (centres undefined)	inactive
CCN(N=O)C(N)=O	inactive
C=C(C)C(=O)OCC1CO1 (centres undefined)	inactive
C=C(C)[C@H]1Cc2c(ccc3c2O[C@@H]2COc4cc(OC)c(OC)cc4[C@@H]2C3=O)O1	inactive
CCCCNC(=O)n1c(NC(=O)OC)nc2ccccc21	inactive
NNC(N)=S	inactive
CCC(C)c1ccc(O)cc1 (centres undefined)	inactive
CCCCC(CC)COC(=O)Cl (centres undefined)	inactive

# input Consider the compound shown here: `O=P(Oc1ccccc1)(Oc1ccccc1)Oc1ccccc1` What is its recorded outcome?
# output inactive

* * *

protocol-description: qHTS assay for small molecule agonists of the p53 signaling pathway - cell viability (AID 651633); note: nearly all actives have a fitted effect of over 30% in size
condition-set: p53RE-bla HCT-116 viability, ATP luminescence, 16 h; series mostly up to 83.3 µM
Inconclusive results are not listed. The source made the active and inactive calls. Calls follow the shape of the full dose curve.
Respond only with the outcome that fits, drawn from Yes for active, No for inactive

Illustrative cases are given below, each with its answer.
CCOc1cc(C=O)ccc1O	No
C=CCc1ccc2c(c1)OCO2	No

# input What classification did `CCCCN(CC)c1c([N+](=O)[O-])cc(C(F)(F)F)cc1[N+](=O)[O-]` end up with in this test?
# output No

# input Each compound tested received a call. Report the one for CCC(C)c1ccc(O)cc1 (stereo not drawn) .
# output No

# input How did this test come out for `CC(C)NC(C)C` ?
# output No

# input Dear colleague, could you share the recorded outcome for `COP(=S)(OC)Oc1ccc([N+](=O)[O-])cc1` when you have a moment?
# output No

# input Would you mind telling me which call this test gave `CCCCNC(=O)n1c(NC(=O)OC)nc2ccccc21` ?
# output No

# input # outcome recorded in this test, key = `Brc1ccc(Oc2cc(Br)c(Br)cc2Br)c(Br)c1`
# output No

# input Short answer needed: outcome of this test for `c1ccc(NNc2ccccc2)cc1` ?
# output No

# input Hey, what did the test say about `CCOc1cc(Oc2ccc(C(F)(F)F)cc2Cl)ccc1[N+](=O)[O-]` ?
# output No

# input Can you look up the reported call for `CC(C)(c1cc(Cl)c(O)c(Cl)c1)c1cc(Cl)c(O)c(Cl)c1` for me?
# output Yes

# input Identify the outcome logged in this assay for the compound shown: `CCN(CC)N=O`
# output No

# input Give the logged outcome of this assay for the following compound: `NNC(N)=S`
# output No

# input So what was the verdict on `CCC(C)(C)c1ccc(O)cc1` in this test?
# output No

# input Kindly provide the recorded test outcome for the following compound: `N#Cc1cc(Br)c(O)c(Br)c1`
# output No

# input Lab log entry: `CC(C)(OOC(C)(C)c1ccccc1)c1ccccc1` — outcome as called in the assay?
# output No

# input Short answer needed: outcome of this test for `Clc1nc(Cl)nc(Cl)n1` ?
# output No

# input Please indicate how the test categorized `O=C(O)C(F)(F)C(F)(F)C(F)(F)C(F)(F)C(F)(F)C(F)(F)C(F)(F)F` .
# output No

Values compiled from PubChem BioAssay (Tox21).
